Each entry below carries its recorded Papp at 18 hours, 50 µM.
protocol.text: PAMPA (parallel artificial membrane permeability assay)
Format: in vitro ADME
test.context: PAMPA; membrane permeation rate (Pe); 50 mM MOPSO buffer pH 6.5 with 5.0% glycocholic acid, 37° C., 18 hours; read-out: iPAMPA Pe
Positions of bridges follow the written chain, without caps; N, C: chain ends. Non-standard residues stand in square brackets, D forms with d. Residues, ends and D or L forms follow the SMILES beside them. *: point of attachment. NMeF = CN[C@@H](Cc1ccccc1)C(=O)O; NMeL = CN[C@@H](CC(C)C)C(=O)O; NMeV = CN[C@H](C(=O)O)C(C)C; NMeA = CN[C@@H](C)C(=O)O; Piperidide = C1CCN(*)CC1; dNMeA = CN[C@H](C)C(=O)O
Please answer using the number first and the unit second.

These recorded examples may help you get a feel for the data.
C=C1CCC(=O)NCC(=O)N(C)[C@@H](C)C(=O)N[C@@H](CC(C)C)C(=O)N[C@@H](C(C)C)C(=O)N(C)[C@@H](CC(C)C)C(=O)N[C@@H](Cc2ccccc2)C(=O)N(C)[C@@H](Cc2ccccc2)C(=O)N[C@@H]([C@@H](C)CC)C(=O)N(C)[C@@H](C)C(=O)N[C@@H](CC(C)C)C(=O)N[C@@H]([C@@H](C)O)C(=O)N[C@H](C(=O)N2CCCCC2)Cc2cccc1c2 ... 3.6 ×10⁻⁶ cm/s
CC(C)C[C@@H]1NC(=O)[C@@H](C(C)C)NC(=O)C[C@@H](C(=O)N2CCCCC2)NC(=O)[C@H](Cc2ccccc2)N(C)C(=O)[C@H](CC(C)C)N(C)C(=O)[C@H](Cc2ccccc2)NC(=O)[C@H](C)N(C)C(=O)[C@H]([C@@H](C)O)NC1=O [DP-701] ([dV]LT[NMeA]F[NMeL][NMeF]D-Piperidide; lactam N-8) ... 31 ×10⁻⁶ cm/s

Any idea what Papp at 18 hours, 50 µM was measured for CC(C)[C@@H]1NC(=O)[C@H](C)N(C)C(=O)CNC(=O)[C@H]([C@@H](C)O)NC(=O)[C@H](C(C)C)N(C)C(=O)[C@H](C)NC(=O)[C@@H](C)N(C)C(=O)C[C@@H](C(=O)N(C)[C@@H](Cc2ccccc2)C(=O)N(C)[C@@H](Cc2ccccc2)C(=O)N[C@@H](C)C(=O)N2CCCCC2)NC(=O)[C@H](Cc2ccccc2)N(C)C(=O)[C@H](C)N(C)C1=O [DP-505] ([dNMeA]A[NMeV]TG[NMeA]V[NMeA][NMeF]D[NMeF][NMeF]A-Piperidide; lactam N-10) ?
6.8 ×10⁻⁶ cm/s

----------
protocol.text: Metabolic stability in human hepatic microsome
Assay type: in vitro ADME
test.context: human, microsomes, pH 7.4, CL NADPH(+)
Positions of bridges follow the written chain, without caps; N, C: chain ends. Non-standard residues stand in square brackets, D forms with d. Residues, ends and D or L forms follow the SMILES beside them. *: point of attachment. NMeF = CN[C@@H](Cc1ccccc1)C(=O)O; NMeI = CC[C@H](C)[C@H](NC)C(=O)O; NMeL = CN[C@@H](CC(C)C)C(=O)O; NMeV = CN[C@H](C(=O)O)C(C)C; NMeA = CN[C@@H](C)C(=O)O; Piperidide = C1CCN(*)CC1; dNMeA = CN[C@H](C)C(=O)O; Sar = CNCC(=O)O
outcome.measure: microsomal CLint at 1 uM (µL/min/mg)
Field: numeric (µL/min/mg). Do not append units.

CC(C)C[C@H]1C(=O)N[C@H](C(=O)N(C)[C@@H](Cc2ccccc2)C(=O)N[C@@H](C)C(=O)N2CCCCC2)CC(=O)N(C)[C@H](C)C(=O)N(C)[C@@H](Cc2ccccc2)C(=O)N(C)[C@@H](CC(C)C)C(=O)N[C@@H]([C@@H](C)O)C(=O)N(C)[C@@H](C)C(=O)N(C)[C@@H](CC(C)C)C(=O)N[C@@H](C(C)C)C(=O)N1C [DP-313] ([dNMeA][NMeF][NMeL]T[NMeA][NMeL]V[NMeL]D[NMeF]A-Piperidide; lactam N-9) ... 61

Next, consider the following compound.
Any idea what microsomal CLint at 1 uM was measured for CC[C@H](C)[C@H]1C(=O)N(C)[C@@H](CC(C)C)C(=O)N[C@H](C(=O)N2CCCCC2)CC(=O)N(C)CC(=O)N[C@@H]([C@@H](C)O)C(=O)N(C)[C@@H](C)C(=O)N(C)[C@@H](C(C)C)C(=O)N[C@@H](Cc2ccccc2)C(=O)N(C)CC(=O)N[C@@H](C)C(=O)N1C [DP-75] ([Sar]T[NMeA][NMeV]F[Sar]A[NMeI][NMeL]D-Piperidide; lactam N-10) ?
27

----------
protocol.text: PAMPA (parallel artificial membrane permeability assay)
Assay type: in vitro ADME
test.context: PAMPA; membrane permeation rate (Pe); 50 mM MOPSO buffer pH 6.5 with 5.0% glycocholic acid, 37° C., 18 hours; read-out: iPAMPA Pe
Experimental: 4 μL of a phospholipid-organic solvent solution composed of 10% (w/v) of egg lecithin, 0.5% (w/v) of cholesterol and dodecane (all purchased from Fluka) was added to a Millipore 96-well membrane filter (hydrophobic PVDF (polyvinylidene difluoride), pore size 0.45 microm) (purchased from Millipore Japan) to make an artificial phospholipid membrane. […]
Starred links: 1 amine or outer side, 2 acyl side, 3 side chain; linkers in the order of their positions; H or OH if unused. Positions of bridges follow the written chain, without caps; N, C: chain ends. Non-standard residues stand in square brackets, D forms with d. Residues, ends and D or L forms follow the SMILES beside them. *: point of attachment. NMePhe(3-Cl) = CN[C@@H](Cc1cccc(Cl)c1)C(=O)O; NMeF = CN[C@@H](Cc1ccccc1)C(=O)O; NMeI = CC[C@H](C)[C@H](NC)C(=O)O; NMeβAla = CN(CCC(=O)[*:2])[*:1]; NMeL = CN[C@@H](CC(C)C)C(=O)O; NMeV = CN[C@H](C(=O)O)C(C)C; NMeA = CN[C@@H](C)C(=O)O; Piperidide = C1CCN(*)CC1; dNMeA = CN[C@H](C)C(=O)O; β3hA = C[C@H](N)CC(=O)O; NPrGly = CCCNCC(=O)O; Sar = CNCC(=O)O; tBu = CC(C)(C)*
outcome.measure: Papp at 18 hours, 50 µM (×10⁻⁶ cm/s)
Field: numeric (×10⁻⁶ cm/s). Do not append units.

CC[C@H](C)[C@H]1C(=O)N[C@@H](C)CC(=O)N(C)[C@H](C)C(=O)N(C)[C@@H](Cc2cccc(Cl)c2)C(=O)N(C)[C@@H](CC(C)C)C(=O)N[C@@H]([C@@H](C)O)C(=O)N(C)CC(=O)N[C@@H](COC(C)(C)C)C(=O)N(C)[C@@H](CC(C)C)C(=O)N1C [DP-799] (cyclo([NMeI][β3hA][dNMeA][NMePhe(3-Cl)][NMeL]T[Sar]S(tBu)[NMeL])) ... 32
CCCN1CC(=O)N(C)[C@@H](CC(C)C)C(=O)N[C@@H](COC(C)(C)C)C(=O)N(C)[C@@H](CC(C)C)C(=O)N[C@H](C(=O)N2CCCCC2)CC(=O)N[C@H](C)C(=O)N(C)[C@@H](C)C(=O)N(C)[C@@H](Cc2ccccc2)C(=O)N(C)[C@@H](CC(C)C)C(=O)N[C@@H]([C@@H](C)O)C1=O [DP-547] ([dA][NMeA][NMeF][NMeL]T[NPrGly][NMeL]S(tBu)[NMeL]D-Piperidide; lactam N-10) ... 34

Any idea what Papp at 18 hours, 50 µM was measured for CC(C)C[C@H]1C(=O)N(C)[C@@H](C)C(=O)N[C@@H](C(C)C)C(=O)N[C@H](C(=O)N(C)[C@@H](Cc2ccccc2)C(=O)N[C@@H](C)C(=O)N2CCCCC2)CC(=O)N(C)CCC(=O)N(C)[C@@H](C(C)C)C(=O)N(C)[C@@H](C)C(=O)N[C@@H](Cc2ccccc2)C(=O)N[C@@H]([C@@H](C)O)C(=O)N(C)[C@@H](C)C(=O)N1C [DP-448] ([NMeβAla][NMeV][NMeA]FT[NMeA][NMeL][NMeA]VD[NMeF]A-Piperidide; lactam N-10) ?
6.2

----------
protocol.text: PAMPA (parallel artificial membrane permeability assay)
Assay type: in vitro ADME
test.context: PAMPA; membrane permeation rate (Pe); 50 mM MOPSO buffer pH 6.5 with 5.0% glycocholic acid, 37° C., 18 hours; read-out: iPAMPA Pe
Starred links: 1 amine or outer side, 2 acyl side, 3 side chain; linkers in the order of their positions; H or OH if unused. Positions of bridges follow the written chain, without caps; N, C: chain ends. Non-standard residues stand in square brackets, D forms with d. Residues, ends and D or L forms follow the SMILES beside them. *: point of attachment. X2 = O=C(C[C@H](N[*:1])C(F)(F)F)[*:2]; NMeL = CN[C@@H](CC(C)C)C(=O)O; NMeS = CN[C@@H](CO)C(=O)O; NMeA = CN[C@@H](C)C(=O)O; Piperidide = C1CCN(*)CC1; Abu = CC[C@H](N)C(=O)O
outcome.measure: Papp at 18 hours, 50 µM (×10⁻⁶ cm/s)
Field: numeric (×10⁻⁶ cm/s). Do not append units.

CC[C@@H]1NC(=O)[C@H](CO)N(C)C(=O)[C@H](CC(C)C)N(C)C(=O)[C@H](CC(C)C)N(C)C(=O)[C@H](CC(C)C)N(C)C(=O)[C@@H](C)NC(=O)[C@H](C)NC(=O)[C@H](CC(C)C)N(C)C(=O)[C@H](CC)NC(=O)[C@H](CC(C)C)N(C)C(=O)C[C@@H](C(F)(F)F)NC1=O [DP-655] (cyclo(A[dA][NMeL][NMeL][NMeL][NMeS][Abu][X2][NMeL][Abu][NMeL])) ... 34

Next, consider the following compound.
Any idea what Papp at 18 hours, 50 µM was measured for CC[C@H](C)[C@@H]1NC(=O)[C@H](Cc2ccccc2)NC(=O)[C@H](CC(C)C)NC(=O)CNC(=O)[C@H]([C@@H](C)O)NC(=O)[C@H](Cc2ccccc2)NC(=O)[C@H](C)N(C)C(=O)C[C@@H](C(=O)N2CCCCC2)NC(=O)[C@H](Cc2ccccc2)NC(=O)[C@H](CC(C)C)N(C)C1=O [DP-436] ([NMeA]FTGLFI[NMeL]FD-Piperidide; lactam N-10) ?
45

Reference source for all entries: patent US9409952B2
